// provenance: ChEMBL document CHEMBL1147843

- Test system: DNA
- Test description: Binding affinity to calf thymus DNA at 20 uM after 4 hrs by thermal denaturation assay
- Type: nucleic-acid assay
- Measurement parameters: Bos taurus
Threshold-based label: ΔTm under 2 °C gives True, ΔTm not under 2 °C gives False.

- O=C1Nc2ccccc2C(=O)N2C=C(c3ccccc3)C[C@@H]12: True
- O=C1Nc2ccccc2C(=O)N2C=C(c3ccc(Cl)c(Cl)c3)C[C@@H]12: False
- O=C1Nc2ccccc2C(=O)N2C=C(c3cccc([N+](=O)[O-])c3)C[C@@H]12: True
- O=C1Nc2ccccc2C(=O)N2C=C(c3cccc4ccccc34)C[C@@H]12: False
- O=Cc1ccc(C2=CN3C(=O)c4ccccc4NC(=O)[C@@H]3C2)cc1: True
- Nc1ccc(C2=CN3C(=O)c4ccccc4NC(=O)[C@@H]3C2)cc1: True
